Numbers sourced from ChEMBL document CHEMBL1131279.

- EXPERIMENTAL_SYSTEM: Human immunodeficiency virus type 1 protease (Human immunodeficiency virus 1)
- EXPERIMENTAL_DETAILS: Inhibitory activity against HIV-1 Protease was determined
Starred links: 1 amine or outer side, 2 acyl side, 3 side chain; linkers in the order of their positions; H or OH if unused. Non-standard residues stand in square brackets, D forms with d. Residues, ends and D or L forms follow the SMILES beside them. *: point of attachment. X3 = O=C([C@H](Cc1ccccc1)CC(O)[C@H](Cc1ccccc1)N[*:1])[*:2]; Cbz = O=C(OCc1ccccc1)*
MEASURED_ATTRIBUTE: Ki (nM)
Number only, in nM; omit the unit.

Input line: Given COC(=O)[C@@H](NC(=O)[C@@H](NC(=O)[C@H](Cc1ccccc1)CC(O)[C@H](Cc1ccccc1)NC(=O)[C@H](C)NC(=O)[C@H](C)NC(=O)OCc1ccccc1)C(C)C)C(C)C (stereo partly specified) (Cbz-AA[X3]VV-OMe) , state its recorded Ki.
Output line: 0.4
